- System: Aβ1-42
- PROCEDURE_DETAILS: Aβ1-42 content in conditioned medium of primary cortico-hippocampal neuron cultures from Tg2576 mice (ELISA; primary and secondary dose-response screening)
- Format: cell-based, mouse
- ASSAY_SETUP: Primary Screening, drug 100 μM; table sorted by Aβ1-40
- Protocol: Potential Aβ-lowering activity was assessed for 150 commercially available cardiovascular drugs using primary cortico-hippocampal neuron cultures derived from embryonic Tg2576 (El 6). […] All cardiovascular reagents were obtained from MicroSource Discovery Systems Inc (Gaylordsville, Conn.). […] The influence of drug treatments in Aβ content in the conditioned medium in treated cultures was assessed by assessing steady state levels of Aβ1-40 and Aβ1-42 in the culture media 24 hours after treatment. […]
Kindly supply the reported Ab1-42 (% of ctl) values for the records listed here.

MOLECULE: O=C(O)C(O)C(O)C(=O)O.OCc1cccnc1 (stereo not drawn) [Nicotinyl Tartrate]
TESTED_TARGET: Aβ1-42
RESULT: 73.8 % of ctl
--
MOLECULE: COc1ccc(CCN(C)CCCC(C#N)(c2ccc(OC)c(OC)c2)C(C)C)cc1OC (stereo not drawn) [Verapamil]
TESTED_TARGET: Aβ1-42
RESULT: 101.1 % of ctl

Item: CC(=O)O[C@H]1C[C@H](O[C@H]2[C@@H](O)C[C@H](O[C@H]3[C@@H](O)C[C@H](O[C@H]4CC[C@@]5(C)[C@H](CC[C@@H]6[C@@H]5C[C@@H](O)[C@]5(C)[C@@H](C7=CC(=O)OC7)CC[C@]65O)C4)O[C@@H]3C)O[C@@H]2C)O[C@H](C)[C@H]1O[C@@H]1O[C@H](CO)[C@@H](O)[C@H](O)[C@H]1O [Lanatoside C] | Ab1-42 (% of ctl): 100.3 % of ctl

* * *

Kindly supply the reported activity at 100 µM values for the records listed here.
- System: Aβ1-42
- PROCEDURE_DETAILS: Aβ1-42 content in conditioned medium of primary cortico-hippocampal neuron cultures from Tg2576 mice (ELISA; primary and secondary dose-response screening)
- Assay type: cell-based, mouse
- ASSAY_SETUP: Mus musculus, 24 h; primary screening, drug 100 μM, Tg2576 neuron cultures; table sorted by Aβ1-42; read-out: Ab1-42 (% of ctl)
Counter-ions that a name gives are not always drawn.
Answers are plain numbers, in %.

Below are worked cases with known answers.
MOLECULE: CO[C@H]1[C@H](O)[C@H](O[C@H]2CC[C@@]3(C)[C@H](CC[C@@H]4[C@@H]3CC[C@]3(C)[C@@H](C5=CC(=O)OC5)CC[C@]43O)C2)O[C@@H](C)[C@@H]1O
activity at 100 µM, %: 90.3
--
MOLECULE: NCCCCCC(=O)O
activity at 100 µM, %: 184
--
MOLECULE: CC(COc1ccccc1)N(CCCl)Cc1ccccc1 (stereo not drawn) [Phenoxybenzamine Hydrochloride]
activity at 100 µM, %: 90.7
--
MOLECULE: C[C@H]1O[C@@H](O[C@H]2[C@@H](O)C[C@H](O[C@H]3[C@@H](O)C[C@H](O[C@H]4CC[C@@]5(C)[C@H](CC[C@@H]6[C@@H]5CC[C@]5(C)[C@@H](C7=CC(=O)OC7)CC[C@]65O)C4)O[C@@H]3C)O[C@@H]2C)C[C@H](O)[C@@H]1O
activity at 100 µM, %: 92.9
--
MOLECULE: CC(Cc1ccc(O)cc1)NCC(O)c1cc(O)cc(O)c1 (stereo not drawn) [Fenoterol Hydrobromide]
activity at 100 µM, %: 78.8

Switching to the query record.
Item: `C[C@]12CC[C@H]3[C@@H](CC[C@]4(O)C[C@@H](O)CC[C@]34C=O)[C@@]1(O)CC[C@@H]2C1=CC(=O)OC1` | activity at 100 µM: 88.6
